pKd: recorded values
- Test target: T1, CD25 (recombinant) (human, UniProt P01589 22-213, limits assumed)
- T1 construct: bought protein; also called IL2-R alpha; IL2-Rα
- T1 sequence (looked up): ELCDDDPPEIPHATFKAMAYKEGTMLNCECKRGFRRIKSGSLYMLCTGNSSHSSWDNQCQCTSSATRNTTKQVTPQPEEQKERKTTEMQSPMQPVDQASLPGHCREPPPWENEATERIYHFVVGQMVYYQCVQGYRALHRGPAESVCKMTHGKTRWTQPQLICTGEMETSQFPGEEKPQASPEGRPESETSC
- Assay summary: SPR (BIAcore)
pKd: −log10 of the molar value.

Binder: daclizumab variant S77 (antibody, IgG1, name in Kabat numbering, V domains shown, IgG1; Kabat positions; also called I48M; DAC I48M) VH: QVQLVQSGAEVKKPGSSVKVSCKASGYTFTSYRMHWVRQAPGQGLEWMGYINPSTGYTEYNQKFKDKATITADESTNTAYMELSSLRSEDTAVYYCARGGGVFDYWGQGTLVTVSS VL: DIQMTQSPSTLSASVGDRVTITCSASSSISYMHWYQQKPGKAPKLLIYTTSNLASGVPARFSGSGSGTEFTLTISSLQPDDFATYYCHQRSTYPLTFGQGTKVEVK
pKd: 9.32
//
Binder: daclizumab variant S76 (antibody, IgG1, name in Kabat numbering, V domains shown, IgG1; Kabat positions; also called I48L; DAC I48L) VH: QVQLVQSGAEVKKPGSSVKVSCKASGYTFTSYRMHWVRQAPGQGLEWLGYINPSTGYTEYNQKFKDKATITADESTNTAYMELSSLRSEDTAVYYCARGGGVFDYWGQGTLVTVSS VL: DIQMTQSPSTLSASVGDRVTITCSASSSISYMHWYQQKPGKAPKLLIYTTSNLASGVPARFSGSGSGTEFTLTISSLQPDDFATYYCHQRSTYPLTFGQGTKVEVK
pKd: 9.22
//
Binder: daclizumab variant S78 (antibody, IgG1, name in Kabat numbering, V domains shown, IgG1; Kabat positions; also called I48V; DAC I48V) VH: QVQLVQSGAEVKKPGSSVKVSCKASGYTFTSYRMHWVRQAPGQGLEWVGYINPSTGYTEYNQKFKDKATITADESTNTAYMELSSLRSEDTAVYYCARGGGVFDYWGQGTLVTVSS VL: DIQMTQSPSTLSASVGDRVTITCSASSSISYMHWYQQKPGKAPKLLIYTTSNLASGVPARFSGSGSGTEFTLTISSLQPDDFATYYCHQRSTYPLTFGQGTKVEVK
pKd: 9.31
